Listed below: IC50 values for each entry.
- Test system: Human Umbilical Vein Endothelial Cells (HUVEC)
- ASSAY: MTT growth inhibition of HUVEC
- Type: cell-based
- DETAILS: 96 h, 4 days, read-out: IG50 HUVEC
Kindly answer with a numeric value in µM, unit omitted.

smiles_text=COc1cc2c(Nc3ccc(F)c(Cl)c3)nnnc2cc1OCCCCl measured_parameter=IC50 quantitative_result=3.73
smiles_text=CCCCOc1cc2nnnc(Nc3ccc(C)cc3)c2cc1OC measured_parameter=IC50 quantitative_result=5.06

### Prompt Which IC50 is reported for this molecule? `FC(F)(F)c1cccc(Nc2nnnc3ccc(Cl)nc23)c1`
### Response 3.02

### Prompt Which IC50 is reported for this molecule? `FC(F)(F)Oc1cccc(Nc2nnnc3ccc(Cl)nc23)c1`
### Response 2.21
